Provenance of the data: PubChem BioAssay (NCI)

System: SNB-75 CNS
Assay Method Text: NCI tumour cell line growth inhibition, 48 h; in the data active means GI50 below about 0.43 µM; inactive means the rest
Outcomes: Yes for active, No for inactive

Compound	Cat
Cc1ccc(C(=O)N2C/C(=C/c3ccccc3)C(=O)/C(=C/c3ccccc3)C2)cc1	No
COc1cc2c3c(n(CCCN4CCSCC4)c(=O)c2cc1OC)-c1cc2c(cc1C3=O)OCO2	No
CCOC(=O)C1=CSC2=NC3=C(CCC/C3=C\c3cc(OC)c(OC)c(OC)c3)C(c3cc(OC)c(OC)c(OC)c3)N12 (stereo not given)	No
CC1=NN(c2nc(N)nc(/C=C\c3ccccc3)n2)C(C)(C)C1	No
Nc1n[nH]c2ccc([C@@H]3Nc4c(F)cc5[nH]ncc5c4[C@H]4C5CCC(C5)[C@@H]34)cc12 (stereo not given in full)	Yes

* * *

System: UO-31 renal
Assay Method Text: NCI tumour cell line growth inhibition, 48 h
Result Type: GI50

Compound	Result Type	Value Observed
Cc1ccc(NC(=O)c2ccc(NC3=C(Cl)C(=O)N(Cc4ccccc4)C3=O)cc2)cc1Cl	GI50	1.41 µM
COc1cc(OC)c(/C=C/C(=O)c2c(N)cc(OC)cc2OC)c(OC)c1	GI50	1.36 µM
CCN(CC)Cc1cc(Nc2cc(C(F)(F)F)c(C#N)c3nc4ccccc4n23)ccc1O	GI50	1.12 µM
Nc1c(C(=O)Nc2ccccn2)sc2nc3c(cc12)CCCCCC3	GI50	4.56 µM
CC(=O)OC1COC(Oc2c(C)c3c4c(c2O)[C@@H](C)CC[C@@H]4[C@@H](C)C[C@H]3C=C(C)C)C(O)C1O (some centres undefined)	GI50	25.1 µM
O=C(/C=C/c1cccc(Oc2ccc(Cl)cc2)c1)c1ccccc1	GI50	17.3 µM
C=C(C)[C@@H]1CC[C@]2(C(=O)n3ccnc3)CC[C@]3(C)[C@H](CC[C@@H]4[C@@]5(C)CCCNC(C)(C)[C@@H]5CC[C@]43C)[C@@H]12	GI50	1.38 µM
CCOC(=O)c1cc2cc(OCc3ccccc3)ccc2[nH]1	GI50	> 100 µM
Cc1n(Cc2ccc3ccccc3n2)cc[n+]1Cc1ccc2ccccc2c1	GI50	13.6 µM

* * *

Tested on: NCI-H23 lung
Assay Method Text: NCI tumour cell line growth inhibition, 48 h

Molecule	Qual	TGI [µM]
O=C1c2ccoc2C(=O)c2oc(=O)ccc21	=	4.01
O=S(=O)(O)c1ccc2c(N=Nc3c(O)ccc4ccccc34)cccc2c1	>	100
Cn1c(SCc2c[nH]c3ccccc23)nnc1-c1ccc(Cl)cc1Cl	=	69.9
C=C(C)[C@@H]1CC[C@]2(C(=O)n3ccnc3)CC[C@]3(C)[C@H](CC[C@@H]4[C@@]5(C)CCCNC(C)(C)[C@@H]5CC[C@]43C)[C@@H]12	=	3.89
O=C1NC2=NN=C(c3ccc(Br)cc3)CN2NC12c1ccccc1-c1ccccc12	>	100
NC(=O)C(=O)Cc1nc2ccccc2s1	>	100
O=C(Nc1cccc(-n2cc(-c3ccncc3)c(-c3ccc(O)c(Cl)c3)n2)c1)Nc1ccc(Cl)c(Cl)c1	=	6.62
FC(F)(F)c1cnc(N/N=C(/c2ccccc2)c2ccccn2)c(Cl)c1	=	25.1
CCOC(=O)[C@H]1Nc2c(cccc2[N+](=O)[O-])C2c3ccccc3CC21 (stereo not given in full)	>	100
COc1ccc(C(=O)/C=C/c2ccc(OCc3ccccc3)c(OC)c2)cc1OC	=	66.7

* * *

Test system: COLO 205 colon
Assay Method Text: NCI tumour cell line growth inhibition, 48 h
Result Type: GI50

Smiles Text	System Tested	Result Type	Value Observed
CN(c1ccc(NC(=O)NCCN2CCOCC2)cc1)c1ccnc(Nc2ccc(CS(C)(=O)=O)cc2)n1	COLO 205 colon	GI50	> 16.8 µM
Cc1ccc(NC(=O)c2ccc(NC3=C(Cl)C(=O)N(Cc4ccccc4)C3=O)cc2)cc1Cl	COLO 205 colon	GI50	13.5 µM
Cc1nn2c(-c3nc4cc(Cl)c(Cl)cc4[nH]3)c(-c3ccc(F)cc3)nc2s1	COLO 205 colon	GI50	> 70.2 µM
C=CC[PH+](c1ccccc1)c1ccccc1.C=CC[PH+](c1ccccc1)c1ccccc1.[Pt+2].[S-]c1ncccn1.[S-]c1ncccn1	COLO 205 colon	GI50	5.24 µM

* * *

Test system: SN12C renal
Assay Method Text: NCI tumour cell line growth inhibition, 48 h
Where a SMILES comes first, the peptide text is derived from it. The star is where a group is joined. Boc = CC(C)(C)OC(=O)*; tBu = CC(C)(C)*
Reported TGI values for the following molecules.
Result Type: TGI

Molecule	Result Type	Value Observed
Cc1cc(C)c(S(=O)(=O)N(CCCN)OCCCN)c(C)c1	TGI	> 100 µM
Cc1cc(OC(=O)c2c(C)cc(OC(=O)c3c(C)cc(O)cc3O)cc2O)cc(O)c1C(=O)O	TGI	> 100 µM
COCCOCCOCCC(=O)NC1CC2CCC1(C)C2(C)C (stereo not drawn)	TGI	> 100 µM
CSc1nc(C)cc(=O)n1C1OC(COC(C)=O)C(OC(C)=O)C(OC(C)=O)C1OC(C)=O (stereo not drawn)	TGI	> 100 µM
CC(C)(C)c1cc(C(OCCl)(C(F)(F)F)C(F)(F)F)c2c(c1)C(C(F)(F)F)(C(F)(F)F)OC21c2ccccc2C(=O)c2ccccc21	TGI	> 100 µM
O=C1NC2=NN=C(c3ccc(Br)cc3)CN2NC12c1ccccc1-c1ccccc12	TGI	> 100 µM
CCN(CCNc1ccc(C)c2sc3cc(Cl)ccc3c(=O)c12)CC(C)(C)O	TGI	> 100 µM
CCOC(=O)n1c2ccccc2c(=O)n1CCO	TGI	> 100 µM
N#C[C@H](C(=O)c1ccccc1F)c1nc2ccccc2[nH]1	TGI	> 100 µM
CC(OC(C)(C)C)C(NC(=O)C(N)CCCCNC(=O)OC(C)(C)C)C(=O)NC(Cc1ccccc1)C(=O)O (stereo not drawn) (H-Lys(Boc)-Thr(tBu)-Phe-OH; configuration not given here)	TGI	> 100 µM
CC1CCN(c2cc(-c3cc4ccccc4o3)oc(=O)c2C#N)CC1	TGI	> 100 µM
Cc1cc(NS(=O)(=O)c2ccc(NC(=O)c3ccc4nc5ccccc5c(Nc5ccc(S(=O)(=O)Nc6cc(C)on6)cc5)c4c3)cc2)no1	TGI	> 50 µM
O=C(Nc1ccc(Br)cc1)Nc1cccc(Br)c1	TGI	> 100 µM
O=C1c2ccccc2-n2c1nc1ccc(Cl)cc1c2=O	TGI	> 100 µM
C=CC[PH+](c1ccccc1)c1ccccc1.C=CC[PH+](c1ccccc1)c1ccccc1.[Pt+2].[S-]c1ncccn1.[S-]c1ncccn1	TGI	48.6 µM
O=C1c2ccccc2-c2c1c1ccc([N+](=O)[O-])cc1c(=O)n2CCCCl	TGI	> 100 µM
Cn1c(CC(O)c2nc3ccccc3n2C)nc2ccccc21 (stereo not drawn)	TGI	> 57.9 µM
CC(=O)OC1COC(Oc2c(C)c3c4c(c2O)[C@@H](C)CC[C@@H]4[C@@H](C)C[C@H]3C=C(C)C)C(O)C1O (stereo partly drawn)	TGI	46.8 µM

* * *

Tested on: M14 melanoma
Assay Method Text: NCI tumour cell line growth inhibition, 48 h

Compound	Qual	TGI [µM]
CN(CCCNC(=O)c1c2ccc3ccccc3c2nn1C)CCCNC(=O)c1c2ccc3ccccc3c2nn1C	=	3.99
CCOP(=O)(/C=C/n1cnc2c(=O)n(C(C)=O)c(N)nc21)OCC	>	100
Cc1ccc(NC(=O)c2ccc(NC3=C(Cl)C(=O)N(Cc4ccccc4)C3=O)cc2)cc1Cl	=	55.1
Nc1c(-c2nc3ccccc3s2)[n+]([O-])c2ccccc2[n+]1[O-]	=	74.2
O=C1c2ccoc2C(=O)c2oc(=O)ccc21	=	21.8
O=C(/C=C/c1cccs1)c1ccc([N+](=O)[O-])cc1	>	100
O=C1C2C(C(=O)N1CC[Se][Se]CCN1C(=O)C3C(C1=O)[C@H]1C=C[C@@H]3C1)[C@H]1C=C[C@@H]2C1 (stereo not given in full)	=	1.97
COC(=O)[C@]1(C)CCCC2(C)C3=C(CCC21)CC1(CC3)SCCS1 (stereo not given in full)	>	10
CN1CC[C@]23c4c5ccc(O)c4OC2c2[nH]ncc2C[C@H]3[C@H]1C5 (stereo not given in full)	>	100
Cc1cc(OC(=O)Nc2ccc(Cl)cc2)ccc1C(=S)Nc1ccccc1	>	100

* * *

Recorded measurements of TGI, one per entry
Test system: HCT-15 colon
Assay Method Text: NCI tumour cell line growth inhibition, 48 h
Result Type: TGI

Molecule	Result Type	Value Observed
COc1ncc2cc1NS(=O)(=O)c1cccc(c1)C(=O)NCC1=CC=C(S1)c1ncnc3c1SC2=C3C	TGI	1.36 µM
Nc1nc2c(c(=O)[nH]1)NC(CCNc1ccc(C(=O)O)cc1)CN2 (stereo not given)	TGI	> 100 µM
CCOC(=O)c1cc2cc(OCc3ccccc3)ccc2[nH]1	TGI	> 100 µM
CCC1=C(c2ccc(OC)cc2)CC[C@]2(CCNC2=O)[C@@H]1C	TGI	> 88.8 µM
CCOC(=O)[C@@H]1C[C@@H]1c1ccc(O)c(O)c1	TGI	> 100 µM
O=C(CN(/C=C/C(=O)C(F)(F)F)c1ccccc1)c1ccc(F)cc1	TGI	> 100 µM
CC(N)=O.[Cl][Pt][Cl].[NH-]c1ccn(C2OC(CO)C(O)C2O)c(=O)n1 (stereo not given)	TGI	> 100 µM
CC1=NNC(=O)[C@H]2[C@H]1CCC1[C@@H]2CC[C@]2(C)[C@@H](O)CC[C@@H]12 (stereo not given in full)	TGI	> 100 µM
CC(=O)Oc1ccc2cc(Oc3ccccc3)c(=O)oc2c1	TGI	> 100 µM
CCOC(=O)C1=C(C)N(CC(C)C)C2(O)C(OC)CC(=O)C3C(=O)N(c4ccccc4)C(=O)C132 (stereo not given)	TGI	> 100 µM
